tested on: MCF-10A cells; experiment: MTT cell viability assay, normal MCF-10A; type: cell-based; details: Homo sapiens, 24 h
RECORDED_ENDPOINT: pIC50
Answer as the number alone; pIC50 is minus log10 of concentration in mol/L.

Request: Recorded pIC50 for COc1cc(/C=C/C(=O)CC(=O)/C=C/c2ccc(O)c(OC)c2)ccc1O [Curcumin, diferuloylmethane] with MCF-10A cells, please?
Result: 3.72

###

tested on: HepG2 cells; test: MTT cell viability assay, HepG2; type: cell-based; conditions: Homo sapiens, 72 h
RECORDED_ENDPOINT: IC50 (µM)
Provide only the numeric value, understood in µM.

COc1cc(/C=C/C(=O)CC(=O)/C=C/c2ccc(O)c(OC)c2)ccc1O: 24.4

Field: next compound
Request: IC50, test system HepG2 cells, entry O=C(/C=C(\O)c1ccccc1)c1ccccc1O
Result: 64.2
